- System: VDR:RXRa (NR concentration 270 nM, RXRa partner concentration 90 nM)
- Experiment Notes: PBM binding z-score (relative to random genomic background probes); higher = stronger binding; sequences stand for … in GC…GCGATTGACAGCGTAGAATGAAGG
Quantity: PBM binding z-score
Reply with just the number.

Worked cases, PBM binding z-score given:
>  <Chain Sequence>
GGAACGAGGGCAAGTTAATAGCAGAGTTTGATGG

>  <Experimental Target>
VDR:RXRa (NR concentration 270 nM, RXRa partner concentration 90 nM)

>  <PBM binding z-score>
0.803

$$$$
>  <Chain Sequence>
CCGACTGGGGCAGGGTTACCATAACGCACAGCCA

>  <Experimental Target>
VDR:RXRa (NR concentration 270 nM, RXRa partner concentration 90 nM)

>  <PBM binding z-score>
0.216

$$$$
>  <Chain Sequence>
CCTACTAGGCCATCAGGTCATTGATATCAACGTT

>  <Experimental Target>
VDR:RXRa (NR concentration 270 nM, RXRa partner concentration 90 nM)

>  <PBM binding z-score>
2.26

$$$$

(Q) Return PBM binding z-score for the following sequence: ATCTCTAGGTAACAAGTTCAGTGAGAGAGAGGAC
(A) 2.22

(Q) Please give measured PBM binding z-score of the following entry: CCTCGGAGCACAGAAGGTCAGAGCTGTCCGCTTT
(A) 1.33

(Q) Please look at this sequence and report its PBM binding z-score: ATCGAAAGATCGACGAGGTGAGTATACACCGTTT
(A) 0.0445

(Q) Item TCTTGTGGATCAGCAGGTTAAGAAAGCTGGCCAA : provide PBM binding z-score
(A) 0.405

(Q) Given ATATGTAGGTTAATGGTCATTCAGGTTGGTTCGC , respond with its PBM binding z-score.
(A) 1.32

----------
- Tested on: THRa:RXRa (NR concentration 90 nM, RXRa partner concentration 90 nM)
- Experiment Notes: PBM binding z-score (relative to random genomic background probes); higher = stronger binding; sequences stand for … in GC…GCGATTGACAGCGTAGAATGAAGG
Known PBM binding z-score of a selection of sequences
Write the number on its own, no unit after it.

Reference set, count: 4
>  <Chain Sequence>
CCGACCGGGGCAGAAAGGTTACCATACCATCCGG

>  <PBM binding z-score>
1.53

$$$$
>  <Chain Sequence>
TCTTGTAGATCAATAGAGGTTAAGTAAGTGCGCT

>  <PBM binding z-score>
3.1

$$$$
>  <Chain Sequence>
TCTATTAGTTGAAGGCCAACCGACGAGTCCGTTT

>  <PBM binding z-score>
0.129

$$$$
>  <Chain Sequence>
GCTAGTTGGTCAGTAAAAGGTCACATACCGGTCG

>  <PBM binding z-score>
3.52

$$$$

(Q) Fill: PBM binding z-score (THRa:RXRa (NR concentration 90 nM, RXRa partner concentration 90 nM)) for this sequence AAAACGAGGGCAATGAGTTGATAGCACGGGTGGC
(A) 1.31

(Q) State recorded PBM binding z-score with THRa:RXRa (NR concentration 90 nM, RXRa partner concentration 90 nM), entry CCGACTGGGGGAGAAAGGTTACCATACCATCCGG , no comment.
(A) 1.84

----------
- Test system: PPARg homodimer (NR concentration 180 nM)
- Experiment Notes: PBM binding z-score (relative to random genomic background probes); higher = stronger binding; sequences stand for … in GC…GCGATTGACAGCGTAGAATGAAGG
Quantity: PBM binding z-score
Number only, no unit.

Solved entries:
>  <Chain Sequence>
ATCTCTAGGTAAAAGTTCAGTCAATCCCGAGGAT

>  <PBM binding z-score>
1.74

$$$$
>  <Chain Sequence>
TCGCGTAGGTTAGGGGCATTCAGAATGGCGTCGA

>  <PBM binding z-score>
-0.168

$$$$
>  <Chain Sequence>
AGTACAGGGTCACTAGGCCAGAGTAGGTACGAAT

>  <PBM binding z-score>
2.13

$$$$
>  <Chain Sequence>
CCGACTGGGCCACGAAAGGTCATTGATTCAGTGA

>  <PBM binding z-score>
2.39

$$$$
>  <Chain Sequence>
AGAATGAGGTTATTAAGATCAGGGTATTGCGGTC

>  <PBM binding z-score>
1.18

$$$$
>  <Chain Sequence>
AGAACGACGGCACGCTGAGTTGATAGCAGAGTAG

>  <PBM binding z-score>
-0.628

$$$$
>  <Chain Sequence>
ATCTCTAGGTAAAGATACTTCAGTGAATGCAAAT

>  <PBM binding z-score>
0.534

$$$$
>  <Chain Sequence>
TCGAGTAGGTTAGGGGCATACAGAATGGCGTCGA

>  <PBM binding z-score>
0.459

$$$$
>  <Chain Sequence>
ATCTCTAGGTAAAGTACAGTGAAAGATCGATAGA

>  <PBM binding z-score>
1.14

$$$$
>  <Chain Sequence>
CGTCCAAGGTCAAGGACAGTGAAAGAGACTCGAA

>  <PBM binding z-score>
2.55

$$$$

Now consider the entry below.
(Q) Write down measured PBM binding z-score (PPARg homodimer (NR concentration 180 nM)) for this sequence. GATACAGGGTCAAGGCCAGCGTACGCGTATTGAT
(A) 2.29

----------
- Tested on: PPARg:RXRa (NR concentration 180 nM, RXRa partner concentration 90 nM)
- Experiment Notes: PBM binding z-score (relative to random genomic background probes); higher = stronger binding; sequences stand for … in GC…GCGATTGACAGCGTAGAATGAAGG
Quantity: PBM binding z-score
Provide a numeric answer; units are not to be included.

Before answering, review these 2 worked examples.
>  <Chain Sequence>
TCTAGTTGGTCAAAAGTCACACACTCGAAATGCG

>  <Experimental Target>
PPARg:RXRa (NR concentration 180 nM, RXRa partner concentration 90 nM)

>  <Measurement>
5.72

$$$$
>  <Chain Sequence>
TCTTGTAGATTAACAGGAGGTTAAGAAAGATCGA

>  <Experimental Target>
PPARg:RXRa (NR concentration 180 nM, RXRa partner concentration 90 nM)

>  <Measurement>
0.145

$$$$

(Q) Please look at this sequence and report its PBM binding z-score: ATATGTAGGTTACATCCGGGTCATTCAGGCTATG
(A) 5.92

(Q) Tell me PBM binding z-score reported for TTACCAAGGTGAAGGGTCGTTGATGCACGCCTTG
(A) 6.01

(Q) Entry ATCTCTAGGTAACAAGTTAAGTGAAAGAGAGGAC needs its PBM binding z-score filled in; supply it.
(A) 2.23

(Q) Tell us which PBM binding z-score value is on record for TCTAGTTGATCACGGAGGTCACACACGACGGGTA
(A) 2.09

----------
- Tested on: PPARg DBDmut IVT, anti-PPARg (DBD mutation: PPARg1 K132A/R137A, NR concentration 270 nM)
- Experiment Notes: PBM binding z-score (relative to random genomic background probes); higher = stronger binding; sequences stand for … in GC…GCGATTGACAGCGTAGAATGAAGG
Threshold rule: PBM binding z-score greater than or equal to -0.1 is yes (1); below that, no (0).

Below are worked cases with known answers.
>  <Chain Sequence>
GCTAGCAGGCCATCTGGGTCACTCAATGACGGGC

>  <Class Name>
no (0)

$$$$
>  <Chain Sequence>
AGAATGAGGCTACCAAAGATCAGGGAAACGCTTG

>  <Class Name>
no (0)

$$$$
>  <Chain Sequence>
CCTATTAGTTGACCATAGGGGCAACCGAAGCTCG

>  <Class Name>
no (0)

$$$$
>  <Chain Sequence>
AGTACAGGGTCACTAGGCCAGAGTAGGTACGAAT

>  <Class Name>
yes (1)

$$$$
>  <Chain Sequence>
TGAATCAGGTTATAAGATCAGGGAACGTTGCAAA

>  <Class Name>
yes (1)

$$$$

Pending sequence:
(Q) PBM binding z-score >= -0.1 for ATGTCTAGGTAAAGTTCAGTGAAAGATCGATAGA ?
(A) yes (1)

----------
- System: RARa:RXR (NR concentration 270 nM, RXRa partner concentration 90 nM)
- Experiment Notes: PBM binding z-score (relative to random genomic background probes); higher = stronger binding; sequences stand for … in GC…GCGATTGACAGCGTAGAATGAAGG
Quantity: PBM binding z-score
No unit in the answer, please; the number alone is enough.

Past entries and their recorded results:
>  <Chain Sequence>
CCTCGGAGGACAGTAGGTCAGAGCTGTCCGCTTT

>  <Quantity>
PBM binding z-score

>  <Measurement>
0.582

$$$$
>  <Chain Sequence>
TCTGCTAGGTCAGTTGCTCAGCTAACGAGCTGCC

>  <Quantity>
PBM binding z-score

>  <Measurement>
-0.122

$$$$
>  <Chain Sequence>
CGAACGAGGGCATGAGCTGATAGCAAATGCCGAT

>  <Quantity>
PBM binding z-score

>  <Measurement>
0.529

$$$$
>  <Chain Sequence>
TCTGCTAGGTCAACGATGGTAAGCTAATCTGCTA

>  <Quantity>
PBM binding z-score

>  <Measurement>
1.92

$$$$
>  <Chain Sequence>
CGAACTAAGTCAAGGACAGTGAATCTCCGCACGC

>  <Quantity>
PBM binding z-score

>  <Measurement>
0.0296

$$$$

# evaluate next
(Q) Recall the reported PBM binding z-score of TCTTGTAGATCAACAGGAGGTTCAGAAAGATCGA on RARa:RXR (NR concentration 270 nM, RXRa partner concentration 90 nM) and write it down.
(A) 0.00715
